Source listed as patent US10399948B2.

- target-desc: rat mGlu3 (Rattus norvegicus (Rat))
- assay-details: mGlu3 Ca2+ flux assay
- Type: cell-based
- applied-conditions: response at 30 μM test compound as percentage of maximal response to glutamate; read-out: rat mGlu3 Glu max (%)
# Lookup of reported remaining activity at 30 µM keyed by entry
# unit: % | format: bare number

These solved cases illustrate the format of a correct answer.
State remaining activity at 30 µM on rat mGlu3 (Rattus norvegicus (Rat)). Entry: O=c1cc(OCCOc2ccc(F)nc2)ccn1-c1ccc(F)cc1
0.88

Recall the reported remaining activity at 30 µM of O=c1cc(OCCOc2ccccc2)ccn1-c1cncc(F)c1 when tested on rat mGlu3 (Rattus norvegicus (Rat)).
4.56

Report remaining activity at 30 µM under test system rat mGlu3 (Rattus norvegicus (Rat)) for O=c1cc(OCCOc2ccccc2)ccn1-c1cccc(F)c1 .
2.01

Print rat mGlu3 (Rattus norvegicus (Rat)) remaining activity at 30 µM for O=c1cc(OCCOc2cc(F)ccc2F)ccn1-c1ccc(F)cc1 .
2.27

Enter remaining activity at 30 µM (test system rat mGlu3 (Rattus norvegicus (Rat))) for N#Cc1cccc(OCCOc2ccn(-c3ccc(F)cc3)c(=O)c2)c1
0.13

Fetch value of remaining activity at 30 µM on rat mGlu3 (Rattus norvegicus (Rat)) for O=c1cc(OCCOc2ccccc2F)ccn1-c1ccc(F)cc1 .
2.48

---
Report measured remaining activity at 30 µM on rat mGlu3 (Rattus norvegicus (Rat)); entry: O=c1cc(OCCCc2ccccc2)ccn1-c1ccc(F)cc1
1.95

Report its remaining activity at 30 µM with rat mGlu3 (Rattus norvegicus (Rat)) as the test system: O=c1nc(OCCOc2ccccc2)ccn1-c1cccc(F)c1
1.61

Give remaining activity at 30 µM for O=c1cc(OCCOc2cccc(Cl)c2)ccn1-c1ccc(F)cc1 tested on rat mGlu3 (Rattus norvegicus (Rat)).
0.85

State remaining activity at 30 µM on rat mGlu3 (Rattus norvegicus (Rat)). Entry: N#Cc1cc(F)cc(-n2ccc(OCCOc3ccccc3)cc2=O)c1
3.44

###

Below, each entry is listed with its recorded log10 IC50.
- target-desc: UniProtKB P31422
- assay-details: mGlu3 Ca2+ flux assay
- applied-conditions: NAM, glutamate EC80; >10,000 = decrease without plateau; >30,000 = no measurable activity
Note the log scale: values are log10 of IC50 expressed in nM.

Indicate its recorded log10 IC50; the compound in question is O=c1cc(OCCOc2ccc(F)cn2)ccn1-c1ccc(F)cc1
3.03

Let me know recorded log10 IC50 for O=c1cc(OCCOc2ccccc2)cnn1-c1ccc(F)cc1 , thanks.
3.59

Identify log10 IC50 associated with the compound O=c1cc(OCCOc2ccccn2)ccn1-c1ccc(F)cc1
3.29

Provide measured log10 IC50 value, entry: O=c1cc(OCCOc2cc(F)ccc2F)ccn1-c1ccc(F)cc1
3.16

Provide log10 IC50 value for the following compound: N#Cc1ccc(-n2ccc(OCCOc3ccccc3)cc2=O)cc1
3.50

Identify measured log10 IC50 associated with O=c1nc(OCCOc2ccccc2)ccn1-c1cccc(F)c1
2.47

For the compound O=c1cc(OCCOc2cccnc2)ccn1-c1ccc(F)cc1 , report log10 IC50.
4.00

Find the measured log10 IC50 of O=c1cc(OCCOc2ccc(F)nc2)ccn1-c1ccc(F)cc1 and report it.
2.85

Further cases:
Read off the recorded log10 IC50 for O=c1cc(OCCOc2ccccc2F)ccn1-c1ccc(F)cc1
2.95

Note down log10 IC50 recorded for O=c1nc(OCCOc2ccccc2)ccn1-c1ccc(F)cc1
2.32

Recall and state the measured log10 IC50 for O=c1cc(OCCOc2ccccc2)ccn1-c1ccccc1F .
3.59

Fill in reported log10 IC50 for this entry: O=c1cc(OCCSc2ccccc2)ccn1-c1ccc(F)cc1
3.59

###

- target-desc: UniProtKB P31424
- Sequence (P31424 21-1203): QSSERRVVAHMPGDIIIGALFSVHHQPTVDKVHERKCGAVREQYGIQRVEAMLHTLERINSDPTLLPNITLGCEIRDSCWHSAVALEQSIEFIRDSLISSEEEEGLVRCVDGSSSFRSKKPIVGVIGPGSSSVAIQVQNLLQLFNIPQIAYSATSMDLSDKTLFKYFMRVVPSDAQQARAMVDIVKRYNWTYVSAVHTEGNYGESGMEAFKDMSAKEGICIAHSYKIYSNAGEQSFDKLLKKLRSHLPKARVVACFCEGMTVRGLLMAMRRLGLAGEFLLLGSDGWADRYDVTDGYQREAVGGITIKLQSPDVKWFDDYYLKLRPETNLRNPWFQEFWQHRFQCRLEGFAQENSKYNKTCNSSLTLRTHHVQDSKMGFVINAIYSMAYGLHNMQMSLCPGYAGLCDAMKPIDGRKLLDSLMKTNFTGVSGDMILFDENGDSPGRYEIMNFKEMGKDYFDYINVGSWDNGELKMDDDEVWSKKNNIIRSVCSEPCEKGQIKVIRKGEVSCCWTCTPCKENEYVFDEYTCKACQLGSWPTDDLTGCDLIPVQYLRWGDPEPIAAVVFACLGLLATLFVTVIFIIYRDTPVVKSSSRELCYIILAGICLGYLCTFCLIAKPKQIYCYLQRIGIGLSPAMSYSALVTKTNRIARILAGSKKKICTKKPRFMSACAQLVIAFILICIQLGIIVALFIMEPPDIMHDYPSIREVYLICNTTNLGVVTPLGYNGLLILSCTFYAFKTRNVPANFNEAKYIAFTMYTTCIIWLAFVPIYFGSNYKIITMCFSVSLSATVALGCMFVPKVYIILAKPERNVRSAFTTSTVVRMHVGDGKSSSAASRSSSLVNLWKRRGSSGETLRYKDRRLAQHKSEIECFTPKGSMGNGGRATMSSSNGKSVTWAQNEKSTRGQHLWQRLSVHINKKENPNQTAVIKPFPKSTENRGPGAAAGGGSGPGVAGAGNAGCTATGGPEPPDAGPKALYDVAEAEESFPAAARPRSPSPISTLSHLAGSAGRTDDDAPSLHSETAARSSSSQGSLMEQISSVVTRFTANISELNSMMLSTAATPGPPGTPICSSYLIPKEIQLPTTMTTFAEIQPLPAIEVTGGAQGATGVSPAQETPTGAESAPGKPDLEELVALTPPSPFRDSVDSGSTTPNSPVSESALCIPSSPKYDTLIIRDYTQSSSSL
- assay-details: mGlu5 Ca2+ flux assay
- Format: cell-based
- applied-conditions: PAM, glutamate EC20; >10,000 = no plateau; >30,000 = no measurable activity; read-out: rat mGlu5 EC50 or IC50
property-name: pEC50
Remember the convention: pEC50 equals -log10 of concentration in molar.

Below: 5 compounds and their reported pEC50.
Retrieve pEC50 measured for O=c1nc(OCCOc2ccccc2)ccn1-c1cccc(F)c1 [Compound 14] and print it.
5.45

Please give the documented pEC50 of O=c1cc(OCCOc2cccc(F)c2)ccn1-c1ccc(F)cc1 [Compound 31]
5.84

Supply recorded pEC50 for O=c1cc(OCCOc2ncccc2Cl)ccn1-c1ccc(F)cc1 [Compound 54] here.
5.11

Kindly indicate its recorded pEC50. Item: O=c1cc(OCCOc2ccccc2)ncn1-c1ccc(F)cc1 [Compound 28]
5.91

Note pEC50 for the compound shown: O=c1cc(OCCOc2cccc(F)c2F)ccn1-c1ccc(F)cc1 [Compound 33]
5.16

Further cases:
Give the reported value of pEC50 for this record: O=c1cc(OCCOc2ccc(F)cc2)ccn1-c1ccc(F)cc1 [Compound 32]
5.82

Provide pEC50 value for the following compound: O=c1cc(OCCOc2ccc(Cl)cc2)ccn1-c1ccc(F)cc1 [Compound 39]
5.00

###

- target-desc: rat mGlu3 (Rattus norvegicus (Rat), UniProt P31422)
- Sequence (P31422 23-879): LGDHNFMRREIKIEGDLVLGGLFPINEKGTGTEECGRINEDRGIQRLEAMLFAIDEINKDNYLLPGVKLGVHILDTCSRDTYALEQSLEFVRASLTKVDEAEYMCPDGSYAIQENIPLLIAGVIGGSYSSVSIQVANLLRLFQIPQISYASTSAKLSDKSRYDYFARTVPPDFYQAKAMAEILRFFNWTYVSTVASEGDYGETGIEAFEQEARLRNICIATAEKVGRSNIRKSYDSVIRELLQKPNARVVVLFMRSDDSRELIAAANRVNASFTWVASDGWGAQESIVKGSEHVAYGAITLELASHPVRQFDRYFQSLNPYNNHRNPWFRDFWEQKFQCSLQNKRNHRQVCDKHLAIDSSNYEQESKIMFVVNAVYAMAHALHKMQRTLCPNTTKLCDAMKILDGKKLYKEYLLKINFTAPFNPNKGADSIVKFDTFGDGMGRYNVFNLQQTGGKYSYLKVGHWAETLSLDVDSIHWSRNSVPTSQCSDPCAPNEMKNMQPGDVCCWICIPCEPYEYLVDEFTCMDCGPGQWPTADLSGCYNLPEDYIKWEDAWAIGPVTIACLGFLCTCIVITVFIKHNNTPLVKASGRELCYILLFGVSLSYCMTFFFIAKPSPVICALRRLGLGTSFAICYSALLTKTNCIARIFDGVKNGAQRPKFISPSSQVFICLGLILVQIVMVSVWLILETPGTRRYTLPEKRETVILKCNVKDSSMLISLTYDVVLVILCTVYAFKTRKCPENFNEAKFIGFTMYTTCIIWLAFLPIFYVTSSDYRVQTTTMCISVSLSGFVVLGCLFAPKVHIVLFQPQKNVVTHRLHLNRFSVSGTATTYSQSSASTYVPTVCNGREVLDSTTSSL
- assay-details: mGlu3 Ca2+ flux assay
- Format: cell-based
- applied-conditions: response at 30 μM test compound as percentage of maximal response to glutamate; read-out: rat mGlu3 Glu max (%)
- Experimental: Gα15/TREx cells stably expressing rat mGlu3 were plated in black-walled, clear-bottomed, poly-D-lysine coated 384-well plates in 20 μL of assay medium (DMEM containing 10% dialyzed FBS, 20 mM HEPES, 25 ng/mL tetracycline, 100 units/mL penicillin/streptomycin plus 250 ng/mL Fungizone, and 1 mM sodium pyruvate) at a density of 15K cells/well. […] Ca^2+ flux was measured using the Functional Drug Screening System (FDSS7000, Hamamatsu, Japan). […]
property-name: remaining activity at 30 µM (%)
Field format: number, assumed %, no unit text.

Recorded remaining activity at 30 µM, per entry:
// Input: O=c1cc(OCCOc2cccc(Cl)n2)ccn1-c1ccc(F)cc1 . Output its remaining activity at 30 µM only.
-1.66

Report remaining activity at 30 µM, nothing else, for this compound: N#Cc1cccc(OCCOc2ccn(-c3ccc(F)cc3)c(=O)c2)n1
35.9

Let me know recorded remaining activity at 30 µM for O=c1cc(OCCOc2ccccn2)ccn1-c1ccc(F)cc1 , thanks.
-0.52

Look up remaining activity at 30 µM of O=c1cc(OCCOCc2ccccc2)ccn1-c1ccc(F)cc1 and report it.
14.5

Assign remaining activity at 30 µM to the following record: O=c1cc(OCCOc2cnccc2Cl)ccn1-c1ccc(F)cc1
36.7

Continuing:
Using the record for O=c1cc(OCCOc2cccnc2Cl)ccn1-c1ccc(F)cc1 , state its measured remaining activity at 30 µM.
-2.79

Return reported remaining activity at 30 µM. Input compound: O=c1cc(OCCOc2cccnc2)ccn1-c1ccc(F)cc1
1.83

For the compound CC(COc1ccccc1)Oc1ccn(-c2ccc(F)cc2)c(=O)c1 (stereo not drawn) , report remaining activity at 30 µM.
1.6

Specify measured remaining activity at 30 µM for O=c1cc(OCCOc2ccccc2)cnn1-c1ccc(F)cc1 .
5.86

Determine its reported remaining activity at 30 µM: O=c1nc(OCCOc2ccccc2)ccn1-c1ccc(F)cc1
1.84

Name the recorded remaining activity at 30 µM of the compound listed here: O=c1cc(OCCOc2cncc(Cl)c2)ccn1-c1ccc(F)cc1
0.41

Please look at this compound and report its remaining activity at 30 µM: O=c1cc(OCCOc2ccccc2)ccn1-c1ccc(F)cc1
1.45

Tell us which remaining activity at 30 µM value is on record for O=c1cc(OCCOc2ccccc2)ncn1-c1ccc(F)cc1
10.1

For the compound O=c1cc(OCCOc2ccccc2)ccn1-c1ccc(F)nc1 , report remaining activity at 30 µM.
-2.95

Give the measured remaining activity at 30 µM for O=c1cc(OCCOc2ncccc2F)ccn1-c1ccc(F)cc1
0.2

###

- target-desc: UniProt P31422
- assay-details: mGlu3 Ca2+ flux assay
- applied-conditions: NAM, glutamate EC80; >10,000 = decrease without plateau; >30,000 = no measurable activity
property-name: pIC50
In textbook form, pIC50 equals minus log to base ten of the concentration in mol/L.

Example entries begin here.
Please report pIC50 for the following molecule: O=c1cc(OCCOc2ccc(F)cc2F)ccn1-c1ccc(F)cc1
5.84

Tell me its pIC50 given N#Cc1cncc(-n2ccc(OCCOc3ccccc3)cc2=O)c1 as the entry.
5.47

Provide one value: measured pIC50 of O=c1cc(OCCOCc2ccccc2)ccn1-c1ccc(F)cc1
4.89

***
Specify reported pIC50 for the molecule shown: O=c1cc(OCCOc2c(F)cccc2F)ccn1-c1ccc(F)cc1
5.50

###

- target-desc: rat mGlu3 (Rattus norvegicus (Rat))
- assay-details: mGlu3 Ca2+ flux assay
- Assay type: cell-based
- applied-conditions: response at 30 μM test compound as percentage of maximal response to glutamate; read-out: rat mGlu3 Glu max (%)
Threshold 1%. remaining activity at 30 µM below it: condition met. remaining activity at 30 µM at it or above: condition not met.

Answered examples (4):
Is 1% strictly greater than the molecule's reported remaining activity at 30 µM? molecule: O=c1nc(OCCOc2ccccc2)ccn1-c1ccc(F)c(F)c1
condition not met

Is remaining activity at 30 µM of COCc1ccc(OCCOc2ccn(-c3ccc(F)cc3)c(=O)c2)cc1 strictly below 1%?
condition not met

# TODO verify remaining activity at 30 µM < 1% strictly for this molecule: O=c1cc(OCCOc2ccc(F)cc2F)ccn1-c1ccc(F)cc1
condition not met

# check: remaining activity at 30 µM < 1% for N#Cc1ccc(-n2ccc(OCCOc3ccccc3)cc2=O)cc1
condition met

// next entry
Confirm or reject: remaining activity at 30 µM of O=c1cc(OCCOc2ccc(Cl)cn2)ccn1-c1ccc(F)cc1 lies strictly below 1%
condition met
